conditions: in n-butanol, 325.85 K
quantity kind: solubility (mole fraction)
Form rule: numeric answer, no unit written next to it.

[Q] Quote solubility (mole fraction) reported for O=C1C=CC(=O)c2ccccc21 please.
[A] 0.0238

---

details: in toluene, 322.53 K
quantity kind: solubility (mole fraction)
Form rule: numeric answer, no unit written next to it.

[Q] Quote solubility (mole fraction) reported for O=C1C=CC(=O)c2ccccc21 please.
[A] 0.116

---

details: in ethanol, 296.52 K
quantity kind: solubility (mole fraction)
Form rule: numeric answer, no unit written next to it.

[Q] Quote solubility (mole fraction) reported for O=C1C=CC(=O)c2ccccc21 please.
[A] 0.00412

---

details: in toluene, 317.27 K
quantity kind: solubility (mole fraction)
Form rule: numeric answer, no unit written next to it.

[Q] Quote solubility (mole fraction) reported for O=C1C=CC(=O)c2ccccc21 please.
[A] 0.0994

---

details: in acetone, 300.66 K
quantity kind: solubility (mole fraction)

[Q] Quote solubility (mole fraction) reported for O=C1C=CC(=O)c2ccccc21 please.
[A] 0.0437

---

settings: in toluene, 306.58 K
quantity kind: solubility (mole fraction)

[Q] Quote solubility (mole fraction) reported for O=C1C=CC(=O)c2ccccc21 please.
[A] 0.0723

---

settings: in acetone, 295.46 K
quantity kind: solubility (mole fraction)
Form rule: numeric answer, no unit written next to it.

[Q] Quote solubility (mole fraction) reported for O=C1C=CC(=O)c2ccccc21 please.
[A] 0.0373

---

conditions: in acetone, 314.97 K
quantity kind: solubility (mole fraction)

[Q] Quote solubility (mole fraction) reported for O=C1C=CC(=O)c2ccccc21 please.
[A] 0.0727

---

details: in n-butanol, 343.26 K
quantity kind: solubility (mole fraction)
Form rule: numeric answer, no unit written next to it.

[Q] Quote solubility (mole fraction) reported for O=C1C=CC(=O)c2ccccc21 please.
[A] 0.0624

---

settings: in ethanol, 333.04 K
quantity kind: solubility (mole fraction)
Form rule: numeric answer, no unit written next to it.

[Q] Quote solubility (mole fraction) reported for O=C1C=CC(=O)c2ccccc21 please.
[A] 0.0256

---

conditions: in ethanol, 279.8 K
quantity kind: solubility (mole fraction)
Form rule: numeric answer, no unit written next to it.

[Q] Quote solubility (mole fraction) reported for O=C1C=CC(=O)c2ccccc21 please.
[A] 0.00145

---

conditions: in acetone, 308.24 K
quantity kind: solubility (mole fraction)
Form rule: numeric answer, no unit written next to it.

[Q] Quote solubility (mole fraction) reported for O=C1C=CC(=O)c2ccccc21 please.
[A] 0.0584

---

conditions: in ethanol, 285.78 K
quantity kind: solubility (mole fraction)
Form rule: numeric answer, no unit written next to it.

[Q] Quote solubility (mole fraction) reported for O=C1C=CC(=O)c2ccccc21 please.
[A] 0.00221

---

details: in acetone, 305.3 K
quantity kind: solubility (mole fraction)
Form rule: numeric answer, no unit written next to it.

[Q] Quote solubility (mole fraction) reported for O=C1C=CC(=O)c2ccccc21 please.
[A] 0.0532

---

settings: in n-butanol, 320.94 K
quantity kind: solubility (mole fraction)

[Q] Quote solubility (mole fraction) reported for O=C1C=CC(=O)c2ccccc21 please.
[A] 0.0183

---

settings: in n-butanol, 341.3 K
quantity kind: solubility (mole fraction)
Form rule: numeric answer, no unit written next to it.

[Q] Quote solubility (mole fraction) reported for O=C1C=CC(=O)c2ccccc21 please.
[A] 0.056

---

settings: in ethanol, 309.13 K
quantity kind: solubility (mole fraction)
Form rule: numeric answer, no unit written next to it.

[Q] Quote solubility (mole fraction) reported for O=C1C=CC(=O)c2ccccc21 please.
[A] 0.00825

---

settings: in ethanol, 314.73 K
quantity kind: solubility (mole fraction)
Form rule: numeric answer, no unit written next to it.

[Q] Quote solubility (mole fraction) reported for O=C1C=CC(=O)c2ccccc21 please.
[A] 0.0109

---

settings: in n-butanol, 317.1 K
quantity kind: solubility (mole fraction)
Form rule: numeric answer, no unit written next to it.

[Q] Quote solubility (mole fraction) reported for O=C1C=CC(=O)c2ccccc21 please.
[A] 0.0152

---

conditions: in toluene, 321.45 K
quantity kind: solubility (mole fraction)
Form rule: numeric answer, no unit written next to it.

[Q] Quote solubility (mole fraction) reported for O=C1C=CC(=O)c2ccccc21 please.
[A] 0.113

---

settings: in toluene, 313.15 K
quantity kind: solubility (mole fraction)
Form rule: numeric answer, no unit written next to it.

[Q] Quote solubility (mole fraction) reported for O=C1C=CC(=O)c2ccccc21 please.
[A] 0.089

---

conditions: in n-butanol, 334.33 K
quantity kind: solubility (mole fraction)

[Q] Quote solubility (mole fraction) reported for O=C1C=CC(=O)c2ccccc21 please.
[A] 0.0377

---

conditions: in ethanol, 303.25 K
quantity kind: solubility (mole fraction)
Form rule: numeric answer, no unit written next to it.

[Q] Quote solubility (mole fraction) reported for O=C1C=CC(=O)c2ccccc21 please.
[A] 0.00596

---

settings: in ethanol, 316.84 K
quantity kind: solubility (mole fraction)
Form rule: numeric answer, no unit written next to it.

[Q] Quote solubility (mole fraction) reported for O=C1C=CC(=O)c2ccccc21 please.
[A] 0.0121

---

settings: in toluene, 330.45 K
quantity kind: solubility (mole fraction)
Form rule: numeric answer, no unit written next to it.

[Q] Quote solubility (mole fraction) reported for O=C1C=CC(=O)c2ccccc21 please.
[A] 0.145

---

details: in toluene, 302.68 K
quantity kind: solubility (mole fraction)
Form rule: numeric answer, no unit written next to it.

[Q] Quote solubility (mole fraction) reported for O=C1C=CC(=O)c2ccccc21 please.
[A] 0.0631

---

conditions: in toluene, 297.82 K
quantity kind: solubility (mole fraction)
Form rule: numeric answer, no unit written next to it.

[Q] Quote solubility (mole fraction) reported for O=C1C=CC(=O)c2ccccc21 please.
[A] 0.0537

---

conditions: in ethanol, 299.87 K
quantity kind: solubility (mole fraction)
Form rule: numeric answer, no unit written next to it.

[Q] Quote solubility (mole fraction) reported for O=C1C=CC(=O)c2ccccc21 please.
[A] 0.00487

---

conditions: in ethanol, 331.34 K
quantity kind: solubility (mole fraction)
Form rule: numeric answer, no unit written next to it.

[Q] Quote solubility (mole fraction) reported for O=C1C=CC(=O)c2ccccc21 please.
[A] 0.0235

---

details: in ethanol, 311.85 K
quantity kind: solubility (mole fraction)
Form rule: numeric answer, no unit written next to it.

[Q] Quote solubility (mole fraction) reported for O=C1C=CC(=O)c2ccccc21 please.
[A] 0.00945

---

conditions: in acetone, 298.25 K
quantity kind: solubility (mole fraction)
Form rule: numeric answer, no unit written next to it.

[Q] Quote solubility (mole fraction) reported for O=C1C=CC(=O)c2ccccc21 please.
[A] 0.0399

Data provenance: BigSolDB 2.1
